Target: ABL2 (Homo sapiens)
Construct: endogenous in cells
Sequence (P42684 whole entry): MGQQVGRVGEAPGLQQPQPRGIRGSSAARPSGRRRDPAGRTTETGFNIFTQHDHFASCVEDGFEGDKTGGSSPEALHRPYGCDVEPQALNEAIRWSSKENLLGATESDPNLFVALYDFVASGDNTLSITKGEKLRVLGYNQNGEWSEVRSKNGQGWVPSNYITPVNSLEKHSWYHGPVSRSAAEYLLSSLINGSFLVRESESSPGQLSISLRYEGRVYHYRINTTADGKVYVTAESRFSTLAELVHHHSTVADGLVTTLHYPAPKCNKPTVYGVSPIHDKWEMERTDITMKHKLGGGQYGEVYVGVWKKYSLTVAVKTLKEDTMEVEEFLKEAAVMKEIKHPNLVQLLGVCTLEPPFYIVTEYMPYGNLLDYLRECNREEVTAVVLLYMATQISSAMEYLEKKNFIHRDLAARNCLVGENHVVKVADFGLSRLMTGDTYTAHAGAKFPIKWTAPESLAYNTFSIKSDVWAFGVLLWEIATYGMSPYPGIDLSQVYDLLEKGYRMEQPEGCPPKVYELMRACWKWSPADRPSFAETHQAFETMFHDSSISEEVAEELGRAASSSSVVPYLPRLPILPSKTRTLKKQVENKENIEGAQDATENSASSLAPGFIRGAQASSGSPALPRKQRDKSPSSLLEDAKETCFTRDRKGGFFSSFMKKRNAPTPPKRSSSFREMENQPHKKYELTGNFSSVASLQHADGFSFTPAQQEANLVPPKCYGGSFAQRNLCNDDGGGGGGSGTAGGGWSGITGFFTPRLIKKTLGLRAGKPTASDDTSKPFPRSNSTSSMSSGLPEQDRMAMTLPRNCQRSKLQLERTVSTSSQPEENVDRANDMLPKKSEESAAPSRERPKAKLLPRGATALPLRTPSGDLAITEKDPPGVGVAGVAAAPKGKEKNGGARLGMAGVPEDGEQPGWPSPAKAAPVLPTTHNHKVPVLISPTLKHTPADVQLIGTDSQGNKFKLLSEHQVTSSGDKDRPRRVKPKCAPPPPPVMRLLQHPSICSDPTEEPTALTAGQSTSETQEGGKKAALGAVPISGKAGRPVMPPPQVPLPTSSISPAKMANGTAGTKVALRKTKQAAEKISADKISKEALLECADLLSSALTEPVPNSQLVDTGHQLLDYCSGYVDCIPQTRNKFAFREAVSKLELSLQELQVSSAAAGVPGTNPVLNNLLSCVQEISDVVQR
Test: Kinobeads two-dose competition binding: ABL2
Conditions: sheet CATDS matrix 2; Gene Name ABL2
Measured Parameter: CATDS
Give bare numbers.

Please review the following examples before continuing.
CSc1nn2c(=O)cc(N3CCOCC3)nc2n1Cc1cccc(Cl)c1Cl [GSK2347225A] = 0
O=c1cc(N2CCOCC2)nc2n(Cc3cccc(C(F)(F)F)c3)ccn12 [GSK2297543A] = 0
CCN1CCN(Cc2ccc(Nc3ncc(F)c(-c4cc(F)c5nc(C)n(C(C)C)c5c4)n3)nc2)CC1 = 0

Fill in CATDS for each of the 3 compounds listed.
1. COc1ccc(Nc2nccc(N3CCC(NC(=O)c4cccc(NC(C)=O)c4)C3)n2)cc1 (centres unmarked) [GSK1379732A]
2. COc1cc2c(cc1Nc1nc(Nc3ccsc3C(N)=O)c3cc[nH]c3n1)N(C(=O)CN(C)C)CCC2 [GSK2110236A]
3. NC(=O)c1cccnc1COc1cc(-c2ccc(N3CCOCC3)nc2)cc2ncccc12

[0, 0, 0]

Your task in this section: give CATDS for each listed record.
1. COc1ccc(Nc2nccc(N3CCC(NC(=O)c4cccc(C#N)c4)C3)n2)cc1 (centres unmarked) [GSK1379730A]
2. Cc1ccc(NC(=O)c2ccc(Cl)cc2)cc1-c1ccc(C(=O)Nc2ccncc2)cc1 [GSK1398467A]

0
0
